# Tested on: isolated aortic rings of rabbits, contraction induced by AII
# assay info: Inhibition of angiotensin II-induced contraction on isolated aortic rings of rabbits in vitro
# Type: cell-based, rabbit
# test settings: Oryctolagus cuniculus, 3rd=submaximum agonist concentration, read-out: IC50 against contractions induced by AII
pIC50: −log10 of the molar value.
readout label: pIC50

I: CCCCc1nc(Cl)c(C(=O)O)n1Cc1ccc(S(=O)(=O)N2CCC[C@H]2C(=O)O)cc1 [Example 15]
II: CCCCc1nc(Cl)c(CO)n1Cc1ccc(S(=O)(=O)N2CCC[C@H]2C(=O)O)cc1Cl [Example 19]
Identify the entry with the smaller pIC50: I or II . Kindly give the label for the entry you pick.
I
(I: 6.69, II: 7.36)

1: CCCCc1nc(Cl)c(CO)n1Cc1ccc(S(=O)(=O)N2CCC[C@H]2C(=O)O)cc1 [Example 21]
2: CCCCc1nc(Cl)c(C(=O)O)n1Cc1ccc(S(=O)(=O)N2CCCCC2C(=O)O)cc1 (centres unmarked) [Example 25]
Determine, for 1 and 2 , which has the greater value of pIC50. Kindly give the label for the entry you pick.
2
(2: 8.30, 1: 6.60)
